// provenance: paper PMC11055700

- assay_target: SARS-CoV-2 Spike-RBD (ancestral, WT) / ACE2 (Homo sapiens, UniProt Q9BYF1)
- Construct: a SARS-CoV-2 RBD protein containing a C-terminal His tag; a full-length ACE2 peptide with a C-terminal Fc tag; purchased Sino Biological
- Sequence (Q9BYF1 18-740): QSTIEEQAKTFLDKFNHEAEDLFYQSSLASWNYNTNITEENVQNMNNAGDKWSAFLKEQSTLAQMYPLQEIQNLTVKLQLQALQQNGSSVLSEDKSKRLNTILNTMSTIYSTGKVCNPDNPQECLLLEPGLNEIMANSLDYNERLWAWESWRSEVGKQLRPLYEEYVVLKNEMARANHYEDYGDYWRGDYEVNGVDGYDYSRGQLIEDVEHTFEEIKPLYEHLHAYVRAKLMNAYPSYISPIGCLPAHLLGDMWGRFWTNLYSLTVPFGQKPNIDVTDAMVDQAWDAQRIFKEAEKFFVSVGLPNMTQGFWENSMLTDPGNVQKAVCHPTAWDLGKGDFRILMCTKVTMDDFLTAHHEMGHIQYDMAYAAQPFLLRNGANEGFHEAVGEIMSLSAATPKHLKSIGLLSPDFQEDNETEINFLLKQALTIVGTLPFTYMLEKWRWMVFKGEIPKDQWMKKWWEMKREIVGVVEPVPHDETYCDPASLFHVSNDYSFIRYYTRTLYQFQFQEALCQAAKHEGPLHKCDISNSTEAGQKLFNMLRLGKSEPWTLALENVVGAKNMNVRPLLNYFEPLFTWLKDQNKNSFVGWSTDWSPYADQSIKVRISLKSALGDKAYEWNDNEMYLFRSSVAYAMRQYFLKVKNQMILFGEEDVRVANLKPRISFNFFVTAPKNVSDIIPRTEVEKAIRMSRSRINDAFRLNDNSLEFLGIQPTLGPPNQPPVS
- protocol_description: biochemical
- Type: binding
- setup_conditions: IC50 spike RBD/ACE2 binding, WT RBD sequence
measured_endpoint: pIC50
The value called pIC50 is obtained by taking minus log10 of the concentration in mol/L.

// query Check the records and state pIC50 for O=C1Nc2ccc(Cl)cc2C1=NNc1ccc([N+](=O)[O-])cc1[N+](=O)[O-] [H2L]
// result 6.35
